Cited source: patent US20070249590A1

- Experimental Target: JAK3 (JH1 and JH2 domain) (Homo sapiens)
- Sequence (P52333 521-1111 limits assumed): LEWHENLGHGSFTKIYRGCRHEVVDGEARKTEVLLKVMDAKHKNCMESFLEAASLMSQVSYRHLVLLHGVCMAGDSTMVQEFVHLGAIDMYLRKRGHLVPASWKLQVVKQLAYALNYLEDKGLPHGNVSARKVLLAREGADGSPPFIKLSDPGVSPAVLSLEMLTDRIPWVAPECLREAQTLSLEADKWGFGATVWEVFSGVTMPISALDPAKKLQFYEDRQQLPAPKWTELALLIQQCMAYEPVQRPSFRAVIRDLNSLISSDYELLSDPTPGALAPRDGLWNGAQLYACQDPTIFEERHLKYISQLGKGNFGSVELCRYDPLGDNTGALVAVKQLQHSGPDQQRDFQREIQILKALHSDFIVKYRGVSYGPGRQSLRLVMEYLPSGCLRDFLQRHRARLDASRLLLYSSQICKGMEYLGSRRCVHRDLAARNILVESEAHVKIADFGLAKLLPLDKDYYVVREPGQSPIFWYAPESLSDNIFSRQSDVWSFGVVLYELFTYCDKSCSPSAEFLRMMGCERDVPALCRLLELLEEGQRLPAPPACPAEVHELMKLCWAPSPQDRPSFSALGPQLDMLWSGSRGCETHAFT
- Method Description: JAK3 Kinase Assay (ELISA of peptide substrate phosphorylation)
- Measurement Setup: purified JAK3 enzyme, 10 μM ATP, biotinylated peptide substrate, 1 hour at room temperature
Parameter: log10 of IC50. Scope: all listed entries.
Base-10 log of IC50, unit µM.

Study these solved cases before continuing.
Molecule	Assay Metric	Meas Value
O=C1NC(=O)c2c1c1c3ccccc3n3c1c1c2c2ccccc2n1CC(O)C(O)CC3 (stereo not drawn)	log10 of IC50	-2.05
O=C1NC(=O)c2c1c1c3ccccc3n3c1c1c2c2ccccc2n1C/C=C\C3	log10 of IC50	-1.66
O=C1NC(=O)c2c1c1c3ccccc3n3c1c1c2c2ccccc2n1CC(OC(=O)N1CCN(CCO)CC1)CC3 (stereo not drawn)	log10 of IC50	-1.40
O=C1NCc2c1c1c3ccccc3n3c1c1c2c2ccccc2n1CC(COC(=O)N1CCC(N2CCCC2)CC1)C3 (stereo not drawn)	log10 of IC50	-0.18
O=C(NCc1ccc2c(c1)OCO2)OC1CCn2c3ccccc3c3c4c(c5c6ccccc6n(c5c32)C1)C(=O)NC4=O (stereo not drawn)	log10 of IC50	-1.18

**Query** Provide log10 of IC50 value for the following molecule: O=C(NC1CCNCC1)OC1CCn2c3ccccc3c3c4c(c5c6ccccc6n(c5c32)C1)C(=O)NC4=O (stereo not drawn)
**Result** -1.46

**Query** Provide log10 of IC50 value for the following molecule: CN(C(=O)OC1CCn2c3ccccc3c3c4c(c5c6ccccc6n(c5c32)C1)C(=O)NC4=O)C1CCN(Cc2ccccc2)C1 (stereo not drawn)
**Result** -0.27

**Query** Provide log10 of IC50 value for the following molecule: NC1CCN(C(=O)OCC2(O)Cn3c4ccccc4c4c5c(c6c7ccccc7n(c6c43)C2)C(=O)NC5)CC1 (stereo not drawn)
**Result** -0.75

**Query** Provide log10 of IC50 value for the following molecule: CC1(C)O[C@@H]2Cn3c4ccccc4c4c5c(c6c7ccccc7n(c6c43)C[C@H]2O1)C(=O)NC5
**Result** -1.35

**Query** Provide log10 of IC50 value for the following molecule: CN(C)CCNC(=O)/C=C/c1ccc2c(c1)c1c3c(c4c5ccccc5n5c4c1n2CC(CO)C5)CNC3=O (stereo not drawn)
**Result** -0.63

**Query** Provide log10 of IC50 value for the following molecule: COc1ccccc1N1CCN(C(=O)OC2CCn3c4ccccc4c4c5c(c6c7ccccc7n(c6c43)C2)C(=O)NC5=O)CC1 (stereo not drawn)
**Result** -1.15

**Query** Provide log10 of IC50 value for the following molecule: COCCNC(=O)OC1CCn2c3ccccc3c3c4c(c5c6ccccc6n(c5c32)C1)C(=O)NC4=O (stereo not drawn)
**Result** -2.10
